Form field: EC50 (one value per entry).
system: primary human fibroblasts derived from IPF patients (LL29 cells); assay: Inhibition of fibrosis (αSMA) in TGF-β1 treated primary human fibroblasts from IPF patients; format: cell-based; details: Fibroblast, 96 h, TGF-β1 20 ng/mL, 4 days, % αSMA positive cells
QUANTITY: EC50 (nM)

> print(dat)
                         chemical.structure  quantitative.readout
1  Fc1ccc(-c2ccnc3[nH]c(-c4n[nH]c5ccc(-c6cncc(CN7CCCC7)c6)cc45)nc23)cc1                 0.009
2  FC1(F)CCN(Cc2cncc(-c3ccc4[nH]nc(-c5nc6c(-c7cccs7)ccnc6[nH]5)c4c3)c2)C1                  1.31
3  CC(C)C(=O)Nc1cncc(-c2ccc3[nH]nc(-c4nc5c(-c6ccoc6)ccnc5[nH]4)c3c2)c1                 0.405
4  Fc1ccc(-c2ccnc3[nH]c(-c4n[nH]c5ccc(-c6cncc(CN7CCCC7)c6)cc45)nc23)s1                 0.125
5  O=C(Nc1cncc(-c2ccc3[nH]nc(-c4nc5c(-c6cccc(F)c6)ccnc5[nH]4)c3c2)c1)C1CC1                 0.043
6  O=C(CC1CCNCC1)Nc1cncc(-c2ccc3[nH]nc(-c4nc5c(-c6cccc(F)c6)ccnc5[nH]4)c3c2)c1                 0.071
7  COc1cncc(-c2ccc3[nH]nc(-c4nc5c(-c6cccc(F)c6)ccnc5[nH]4)c3c2)c1                  9.99
